system: human β2GPI-dependent antiphospholipid antibody; experiment: Micropanning of mutant domain 1 phage, patient antibodies; type: binding; conditions: Table 7B, antibody 6632
Please go through the items and note down their Micropan score.
Please respond with just the number, no unit label.

Return reported Micropan score; argument: 2D4: phage clone, domain 1 mutant M42T (protein) GRTCPKPDDLPFSTVVPLKTFYEPGEEITYSCKPGYVSRGGTRKFICPLTGLWPINTLKCTPRV
4

Return reported Micropan score; argument: B11: phage clone, domain 1 mutant M42K (protein) GRTCPKPDDLPFSTVVPLKTFYEPGEEITYSCKPGYVSRGGKRKFICPLTGLWPINTLKCTPRV
4

Return reported Micropan score; argument: 3A4: phage clone, domain 1 multiple mutant D8A, S13T (protein) GRTCPKPADLPFTTVVPLKTFYEPGEEITYSCKPGYVSRGGMRKFICPLTGLWPINTLKCTPRV
3

Return reported Micropan score; argument: SC10: phage clone, domain 1 mutant N56D (protein) GRTCPKPDDLPFSTVVPLKTFYEPGEEITYSCKPGYVSRGGMRKFICPLTGLWPIDTLKCTPRV
3
